molecular target: BLM642-1290 helicase core, wild type (human, UniProt P54132 642-1290); experiment: fluorescence anisotropy; 1 mM MgCl2, no ATP listed; 25 mM Tris-HCl pH 7.5 (last digit split in text), 100 mM NaCl, 1 mM MgCl2, 3 mM DTT, 5 nM DNA, 25 C, 5 min equilibration; Hill fit; settings: protein: recombinant; label: 3' fluorescein on F18; blunt
Sequence (P54132 642-1290): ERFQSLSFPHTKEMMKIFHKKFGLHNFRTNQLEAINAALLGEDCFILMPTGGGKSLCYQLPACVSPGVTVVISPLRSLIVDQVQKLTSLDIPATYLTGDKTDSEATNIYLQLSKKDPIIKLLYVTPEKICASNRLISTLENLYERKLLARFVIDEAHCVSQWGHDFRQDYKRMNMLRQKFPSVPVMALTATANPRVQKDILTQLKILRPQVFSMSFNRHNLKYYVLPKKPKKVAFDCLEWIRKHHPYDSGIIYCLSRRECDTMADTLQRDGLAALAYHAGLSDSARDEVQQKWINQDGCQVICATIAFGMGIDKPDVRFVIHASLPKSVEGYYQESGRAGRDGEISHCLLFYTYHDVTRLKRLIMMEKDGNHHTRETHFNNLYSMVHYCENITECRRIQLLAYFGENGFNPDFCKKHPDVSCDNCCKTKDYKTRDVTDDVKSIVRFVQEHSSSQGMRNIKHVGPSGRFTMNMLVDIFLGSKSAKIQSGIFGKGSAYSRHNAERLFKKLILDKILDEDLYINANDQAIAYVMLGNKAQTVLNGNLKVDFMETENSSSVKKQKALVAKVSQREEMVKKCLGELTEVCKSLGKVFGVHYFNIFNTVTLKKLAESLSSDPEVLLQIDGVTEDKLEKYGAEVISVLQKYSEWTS
metric.name: Kd (nM)
# value in nM; strip the unit string

Q. Please give the measured Kd for this binder: F18/F18 bis dsDNA (18 bp) (dsDNA) DNA 1: GCCTCGCTGCCGTCGCCA DNA 2: TGGCGACGGCAGCGAGGC
A. 4.6
